- assayed_system: OsWRKY34 (Oryza sativa, UniProt Q0JBA9 1-250)
- Sequence (Q0JBA9 entry or part of it): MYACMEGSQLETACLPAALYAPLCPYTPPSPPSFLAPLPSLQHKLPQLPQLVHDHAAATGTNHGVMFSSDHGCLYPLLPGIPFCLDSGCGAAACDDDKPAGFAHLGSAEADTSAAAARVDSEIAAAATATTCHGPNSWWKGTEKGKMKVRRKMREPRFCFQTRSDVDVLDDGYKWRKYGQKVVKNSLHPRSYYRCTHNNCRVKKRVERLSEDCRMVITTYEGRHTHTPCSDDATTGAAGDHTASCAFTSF
- protocol: protein-binding microarray (RPBM); PBS, 2% BSA, 51.3 ng/ul salmon testes DNA, 50 uM zinc acetate, 200 nM TF, 25 C, 1 h; high values mean tight binding
- assay_context: protein: recombinant; tags: N-terminal polyhistidine and DsRed monomer fusion (pET32a); label: CyDye5-dUTP incorporated in the synthesized complementary strand; 3' TTTTT single-stranded linker to array surface; dsDNA, one strand shown
The full ranking holds about 68,000 sequences; the median of “fluorescence intensity (a.u.)” is about 9,100, and the highest 2% start at about 16,000. What follows is part of a selection rich in the highest values, with near analogues and random picks from the rest.
measurement_name: binding signal

Known binding signal results, listed for orientation:
ACAAATGGTCAAACGTTGATAAAAAAGTCAACGGCGTCATCGGAGTCACCTAGTGCAG; 20600 fluorescence intensity (a.u.)
CGGATGGTCAAACGTTGGTCAAAAAGTCAACGGCGTCATACGGAGTCACCTAGTGCAG; 19600 fluorescence intensity (a.u.)

The sequence TAAAACGAATGGTCAAACGTTGGTCGAAAAGTCAACGGCGCGGAGTCACCTAGTGCAG , tested on OsWRKY34 (Oryza sativa, UniProt Q0JBA9 1-250), showed binding signal of 14400 fluorescence intensity (a.u.)

The sequence AAACGAATAGTCAAACGTTGATCGAAAAGTCAACGGCGTCCGGAGTCACCTAGTGCAG , tested on OsWRKY34 (Oryza sativa, UniProt Q0JBA9 1-250), showed binding signal of 19300 fluorescence intensity (a.u.)

The sequence AATGGTCAAACGTTGGATAAAAAGTCAACGGCGTCATACACGGAGTCACCTAGTGCAG , tested on OsWRKY34 (Oryza sativa, UniProt Q0JBA9 1-250), showed binding signal of 14700 fluorescence intensity (a.u.)
